# study system: HLA-A*02:17
# procedure details: IEDB peptide-MHC binding, purified MHC/competitive/radioactivity; filed as Kd, often an IC50 or EC50 that approximates it; bounds were set here for any values at or beyond the usual limits of such assays
# experimental context: source organism: Dengue virus 4 Philippines/H241/1956
quantity: Kd (µM)

* ALWDVPSPA | 0.885
* CLWPKTHTL | 0.251
* LMLVALLGA | 2.92

* * *

Known Kd of a selection of sequences
# study system: HLA-B*27:03
# procedure details: IEDB peptide-MHC binding, purified MHC/competitive/fluorescence; filed as Kd, often an IC50 or EC50 that approximates it; bounds were set here for any values at or beyond the usual limits of such assays
# experimental context: source organism: Vibrio vulnificus YJ016
quantity: Kd

* VTFGARASF | ≥ 20 µM
* TSCAPMMQK | ≥ 20 µM
